Numbers sourced from patent US10975068B2.

tested-target: human RORγt ligand binding domain (RORγt LBD) (Homo sapiens (Human))
Sequence (P51449 other isoform, or with tags, fused parts or gaps): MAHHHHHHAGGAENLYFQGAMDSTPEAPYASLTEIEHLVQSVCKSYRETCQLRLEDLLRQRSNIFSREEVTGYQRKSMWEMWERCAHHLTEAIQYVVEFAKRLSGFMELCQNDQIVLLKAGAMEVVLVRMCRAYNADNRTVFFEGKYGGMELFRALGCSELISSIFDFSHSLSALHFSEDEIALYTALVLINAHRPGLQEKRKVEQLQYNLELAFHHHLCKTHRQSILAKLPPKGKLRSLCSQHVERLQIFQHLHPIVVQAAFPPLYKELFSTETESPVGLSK
assay-remarks: RORγt ThermoFluor® assay (thermal shift binding)
assay-setup: read-out: ThermoFluor® Assay, Kd
What pKd was measured for each of the following?
// pKd here means minus log10 of the molar concentration (mol/L)

Q) // map "CC(C)(O)CNC(=O)c1nc(C(=O)N2C3CCC2CC3)c(-c2cnc(NCC3(C(F)(F)F)CCC3)cc2C(F)(F)F)s1" to recorded pKd (system: human RORγt ligand binding domain (RORγt LBD) (Homo sapiens (Human)))
A) 8.82

Q) Which pKd is reported with human RORγt ligand binding domain (RORγt LBD) (Homo sapiens (Human)) for this entry: "C[C@H](NC(=O)c1nc(C(=O)N2CC(F)(F)C[C@@H]2C)c(-c2cnc(NC(C)(C)C)cc2C(F)F)s1)C(C)(C)O" ?
A) 8.74

Q) Form field: pKd recorded for "CC[C@H](CO)NC(=O)c1nc(C(=O)N2CCC[C@@H]2C)c(-c2cnc(N[C@@H](C)C(F)(F)F)cc2C(F)F)s1" with human RORγt ligand binding domain (RORγt LBD) (Homo sapiens (Human)) (enter value)
A) 8.42

Q) pKd of C[C@H]1CCCN1C(=O)c1nc(C(=O)NCC(C)(O)C(F)(F)F)sc1-c1cnc(NC(C)(C)C)cc1C(F)(F)F (single isomer, unassigned) [Example 358] on human RORγt ligand binding domain (RORγt LBD) (Homo sapiens (Human))?
A) 8.60

Q) Test system human RORγt ligand binding domain (RORγt LBD) (Homo sapiens (Human)); read-out pKd; what value for CC[C@H](Nc1cc(C(F)(F)F)c(-c2sc(C(=O)NCC(C)(C)O)nc2C(=O)N2CCC[C@@H]2C)cn1)C1CC1 (relative stereo) ?
A) 8.59

Q) // lookup pKd | system=human RORγt ligand binding domain (RORγt LBD) (Homo sapiens (Human)) | key= "CC(C)(O)CNC(=O)c1nc(C(=O)N2C3CCC2CC3)c(-c2cnc(NC(C3CC3)C3CC3)cc2C(F)(F)F)s1"
A) 8.96

Q) Enter reported pKd observed with human RORγt ligand binding domain (RORγt LBD) (Homo sapiens (Human)) for "C[C@H]1CCCN1C(=O)c1nc(C(=O)N[C@H]2C[C@H](O)C2)sc1-c1cnc(NC(C)(C)C)cc1C(F)(F)F"
A) 8.46

Q) For human RORγt ligand binding domain (RORγt LBD) (Homo sapiens (Human)), provide pKd of "CC(C)(O)CNC(=O)c1nc(C(=O)N2C3CCC2CC3)c(-c2cnc(NC(C3CC3)C3CC3)cc2C(F)F)s1" please.
A) 8.70

Q) // lookup pKd | system=human RORγt ligand binding domain (RORγt LBD) (Homo sapiens (Human)) | key= "CC[C@H](Nc1cc(C(F)F)c(-c2sc(C(=O)N[C@@H]3COC[C@H]3O)nc2C(=O)N2C3CCC2CC3)cn1)C(F)(F)F"
A) 8.36

Q) Param readout = pKd; param system = human RORγt ligand binding domain (RORγt LBD) (Homo sapiens (Human)); param query = "C[C@H]1CC(F)(F)CN1C(=O)c1nc(C(=O)NCC(C)(C)O)sc1-c1cnc(NC(C2CC2)C2CC2)cc1C(F)(F)F" ; response: value
A) 9.21

Q) Reported pKd for human RORγt ligand binding domain (RORγt LBD) (Homo sapiens (Human)), given "C[C@H]1CC(F)(F)CN1C(=O)c1nc(C(=O)NCC(C)(C)O)sc1-c1cnc(NC2(C(F)(F)F)CCC2)cc1C(F)F" ?
A) 9.28

Q) # get_value(readout= pKd, system= human RORγt ligand binding domain (RORγt LBD) (Homo sapiens (Human))) for "C[C@H]1CCCN1C(=O)c1nc(C(=O)NCC(C)(C)O)sc1-c1cnc(NC(C)(C)C(F)(F)F)cc1C(F)(F)F"
A) 9.39

Q) Form: Entry = "CCNC(=O)c1nc(C(=O)N2CCC[C@@H]2C)c(-c2cnc(NC(C)(C)C)cc2C(F)(F)F)s1" | System = human RORγt ligand binding domain (RORγt LBD) (Homo sapiens (Human)) | pKd = ____
A) 7.80

Q) Item "C[C@H](CO)NC(=O)c1nc(C(=O)N2CC(F)(F)C[C@@H]2C)c(-c2cnc(NC(C)(C)C)cc2C(F)F)s1" with human RORγt ligand binding domain (RORγt LBD) (Homo sapiens (Human)) - pKd?
A) 9.00

Q) Missing value: pKd, human RORγt ligand binding domain (RORγt LBD) (Homo sapiens (Human)), entry "C[C@H]1CCCN1C(=O)c1nc(C(=O)N[C@H]2CC[C@@H](O)C2)sc1-c1cnc(NC(C)(C)C)cc1C(F)(F)F" . Fill in?
A) 8.68

Q) Give pKd (human RORγt ligand binding domain (RORγt LBD) (Homo sapiens (Human))) of the following compound: C[C@H]1CCCN1C(=O)c1nc(C(=O)NCC(C)(O)C(F)(F)F)sc1-c1cnc(NC(C)(C)C)cc1C(F)(F)F (single isomer, unassigned) [Example 359]
A) 8.96

Q) API: value(readout= pKd, system= human RORγt ligand binding domain (RORγt LBD) (Homo sapiens (Human)), query= "CC[C@H](Nc1cc(C(F)F)c(-c2sc(C(=O)N[C@@H]3CCC[C@H]3O)nc2C(=O)N2CCC[C@@H]2C)cn1)C(F)(F)F" )
A) 8.85

Q) Recall the recorded pKd for "CCC(C)(C)Nc1cc(C(F)F)c(-c2sc(C(=O)NCC(C)(C)O)nc2C(=O)N2C3CCC2CC3)cn1" with human RORγt ligand binding domain (RORγt LBD) (Homo sapiens (Human)) and state it.
A) 8.96

Q) API: value(readout= pKd, system= human RORγt ligand binding domain (RORγt LBD) (Homo sapiens (Human)), query= "CC[C@H](Nc1cc(C(F)F)c(-c2sc(C(=O)N[C@H](C)CO)nc2C(=O)N2C3CCC2CC3)cn1)C(F)(F)F" )
A) 8.34

Q) Form entry - test system: human RORγt ligand binding domain (RORγt LBD) (Homo sapiens (Human)); read-out: pKd; compound: "CC[C@H](Nc1cc(C(F)F)c(-c2sc(C(=O)NC3CCS(=O)(=O)CC3)nc2C(=O)N2CCC[C@@H]2C)cn1)C(F)(F)F"
A) 8.47

Q) API: value(readout=pKd, system=human RORγt ligand binding domain (RORγt LBD) (Homo sapiens (Human))) for record "Cc1c(-c2sc(C(=O)NCC(C)(C)O)nc2C(=O)N2CCC(F)CC2)cnc(NC2CCCCC2)c1C#N"
A) 6.80

Q) Form field: pKd recorded for "C[C@H](Nc1cc(C(F)F)c(-c2sc(C(=O)NC3CN(S(C)(=O)=O)C3)nc2C(=O)N2CCC[C@@H]2C)cn1)C(F)(F)F" with human RORγt ligand binding domain (RORγt LBD) (Homo sapiens (Human)) (enter value)
A) 8.20

Q) # query: pKd | item C[C@H](O)[C@@H](C)NC(=O)c1nc(C(=O)N2CCC[C@@H]2C)c(-c2cnc(NC(C)(C)C)cc2C(F)(F)F)s1 (relative stereo) | system: human RORγt ligand binding domain (RORγt LBD) (Homo sapiens (Human))
A) 8.92

Q) // fetch human RORγt ligand binding domain (RORγt LBD) (Homo sapiens (Human)) pKd for "CC[C@H](Nc1cc(C(F)F)c(-c2sc(C(=O)N3CC4(COC4)C3)nc2C(=O)N2CCC[C@@H]2C)cn1)C(F)(F)F"
A) 8.30

Q) Short answer please: pKd, human RORγt ligand binding domain (RORγt LBD) (Homo sapiens (Human)), entry "C[C@H]1CC(F)(F)CN1C(=O)c1nc(C(=O)NCC(C)(C)O)sc1-c1cnc(NCC(C)(C)C)cc1C(F)(F)F"
A) 9.28
